Data origin: patent US20130266566A1

# measured.target: T1, rat PAI-1 (rat, UniProt P20961 24-402)
# T1 sequence: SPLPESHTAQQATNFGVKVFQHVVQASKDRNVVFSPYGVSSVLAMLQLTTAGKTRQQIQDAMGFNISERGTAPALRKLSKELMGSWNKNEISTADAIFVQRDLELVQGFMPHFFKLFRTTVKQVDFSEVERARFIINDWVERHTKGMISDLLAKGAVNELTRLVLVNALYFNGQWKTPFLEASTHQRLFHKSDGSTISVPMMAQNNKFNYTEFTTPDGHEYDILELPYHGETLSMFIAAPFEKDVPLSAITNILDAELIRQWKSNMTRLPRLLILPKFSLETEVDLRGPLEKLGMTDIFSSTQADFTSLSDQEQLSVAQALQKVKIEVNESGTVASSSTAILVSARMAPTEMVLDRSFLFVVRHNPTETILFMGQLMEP
# test.method.notes: cell-based or functional assay
Each record's Chromogenic (IC50 in nM) rat is compared with group 1: < 80 nM; group 2: ≥ 80 nM and < 300 nM; group 3: ≥ 300 nM to give its class.

INSERT INTO measurements (binder, category) VALUES
  ('Antibody 25 scFv (scFv) QVQLQQSGAEVKKPGSSVKVSCKASGGTFSSYAISWVRQAPGQGLEWMGGIIPTFGTANYAQKFQGRVTITADESTSTAYMELSGLRSEDTAVYYCARERRQWLEGHFDYWGQGTPVTVSSDIQMTQSPSFLSASIGDRVTITCRASESIYHELAWYQQKPGKAPKLLIYKASSLASGAPSRFSGSGSGTAFTLTISSLQPDDFATYYCQQYSNYPLTFGGGTKLEIK', 'group 3'),
  ('Antibody 26 scFv (scFv) QVQLQQSGAEVKKPGTSVKVSCKASGGTFSSYAISWVRQAPGQGLEWMGGIIPIFGTANYAQKFQGRVTITADESTSTAYMELSSLRSEDTAVYYCAREKRQWLEGHFDYWGRGTPVTVSSDIQMTQSPSFLSASIGDRVTITCRASEGIYHTLAWYQQKPGKAPKLLIYRASSLASGAPSRFSGSGSGTDFTLTISSLQPDDFATYYCQQYSNYPLTFGGGTKLEIK', 'group 2'),
  ('Antibody 11 scFv (scFv) QVQLQQSGAEVKKPGSSVKVSCKASGGTFSSYAISWMRQAPGQGLEWMGGIIPIFGTANYAQKFQGRVTITADESTSTAYMELSGLRSEDTAVYYCAREKRQWLEGHFDYWGRGTPVTVSSDIQMIQSPSFLSASTGDRVTITCQASEGIYHELAWYQQKPGKAPKLLIYRASSLASGAPSRFSGSGSGTDFTLTISSLQPDDFATYYCQQYSNYPLTFGGGTKLEIK', 'group 1'),
  ('Antibody 07 scFv (scFv) QVQLQQSGAEVKKPGSSVKVSCKASGGTFSSYAISWVRQAPGQGLEWVGGIIPTFGTANYAQKFQGRVTITADESTSTAYMELSGLRSEDTAVYYCAREKRQWLEGHFDYWGRGTPVTVSSDIQMAQSPSFLSASIGDRVTITCRASEGIYHELAWYQQKPGKAPKLLIYRASSLASGAPSRFSGSGSGTDFTLTISSLQPDDFATYYCQQYSNYPLTFGGGTKLEIK', 'group 2'),
  ('Antibody 14 scFv (scFv) QVQLQQSGAEVKKPGSSVKVSCKASGGTFSSYAISWVRQAPGQGLEWMGGIIPTFGTANYAQKFQGRVTITADESTSTAYMELSGLRSEDTAVYYCAREKRQWLEGHFDYWGRGTLVTVSSDIQMTQSPSFLSASIGDRVTITCRASEGIYHNLAWYQQKPGKAPKLLIYRASSLASGAPSRFSGSGSGTDFTFTISSLQPDDFATYYCQQYSNYPLTFGGGTKLEIK', 'group 1'),
  ('Antibody 04 scFv (scFv) QVRLQQSGAEVKKPGSSVKVSCKASGGTFSSYAISWVRQAPGQGLEWMGGIIPTFGTANYAQKFRGRVTITANESTSTAYMELSGLRSEDTAVYYCAREKRQWLEGRFDYWGRGTLVTVSSDIQMTQSPSFLSASIGDRITITCRASEGIYHSLAWYQQKPGKAPKLLIHRATSLASGTPSRFGGSGSGTDFALTISSLQPDDFATYYCQQYSNYPLTFGGGTKLEIK', 'group 3'),
  ('Antibody 22 scFv (scFv) QVQLQQSGAEVKKPGSSVKVSCKASGGTFSGYAISWVRQAPGQGLEWMGGIIPTFGTANYSQKFQGRVTITADESTSTAYMELSGLRSEDTAVYYCAREKRQWLEGHFDYWGRGTPVTVSSDIQMTQSLSFLSASIGDRVTITCRASEGIYHALAWYQQKPGKAPKLLIYRASSLASGAPSRFSGSGSGTDFTLTISSLQPDDFATYYCQQYSNYPLTFGGGTKLEIK', 'group 3'),
  ('Antibody 21 scFv (scFv) PVQLQQSGAEVKKPGSSVKVSCKASGGTFSSYAISWVRQAPGQGLEWMGGIIPTFGTANYAQKFQGRVTITADESTSTAYMELSGLRSEDTAVYYCAREKRQWLEGHFDYWGRGTPVTVSSDIQMAQSPSFLSASIGDRVTITCRASEGIYHNLAWYQQKPGKAPKLLIYRASSLASGAPSRFSGSGSGTDFTLTISSLQPDDFATYYCQQYSNYPLTFGGGTKLEIK', 'group 1');
